The reported measurements were obtained from PubChem BioAssay (NCI).

Test system: CAKI-1 renal
protocolDetails: NCI-60 one-dose screen, 48 h (100 = growth as untreated, 0 = no growth, -100 = all killed)
conditionInfo: 10 µM
The panel holds about 83,000 compounds, 20% with a hit somewhere; the sample as a whole holds those more often. Activity calls are given as the source filed them. The calls were made as follows: active = growth percent below 10; inactive = the rest.
readout: growth

Here's what some known entries look like.
>>> reading("COC(=O)c1cccnc1")
"94.8% (inactive)"
>>> reading("Cc1ccc(/C=C2\\SC(=S)N(c3ccc(F)cc3)C2=O)o1")
"54.9% (inactive)"

Each molecule below has a reported value. Please supply its growth.
1. CCN(CC)CCCC(C)Nc1ccnc(/C=C/c2ccc(Cl)cc2)c1 (stereo unspecified)
2. CC1CC(O)C2C3(C)CCCC2(COC3=O)C12CCC1(CCOC1=O)O2 (stereo unspecified)
3. O=[N+]([O-])c1ccc(N=Nc2ccccc2)cc1
4. CC(C)CCCC(=O)O

Return:
["18.1% (inactive)", "94.7% (inactive)", "92.8% (inactive)", "105% (inactive)"]

Each molecule below has a reported value. Please supply its growth.
1. CCOc1ccccc1/C=N/Nc1nc2ccccc2o1
2. Cc1cc(N)c(S(=O)(=O)O)c(N)c1
3. O=C(NCO)c1ccccc1
4. N#Cc1ccc(OC(=O)Nc2ccc(Cl)c(Cl)c2)cc1
5. Nc1ccc(N=Nc2ccc(S(=O)(=O)O)cc2)c2ccccc12
6. O=C(c1ccc(O)cc1)c1ccc(O)cc1

Return:
1. 110% (inactive)
2. 90.1% (inactive)
3. 98.5% (inactive)
4. 35.8% (inactive)
5. 91.5% (inactive)
6. 110% (inactive)

Each molecule below has a reported value. Please supply its growth.
1. COc1cc(C2c3cc4c(cc3C3OC(=O)C2C3CO)OCO4)cc(OC)c1OC (stereo unspecified)
2. CCC/C=C(/C(C)=O)C(=O)OCC
3. Oc1ccc2c(c1)OCC1(O)Cc3cc(O)c(O)cc3C21 (stereo unspecified)
4. CCCC(=O)Nc1ccc2c(c1)CN1C(=O)c3ccccc3C1=N2
5. COc1cc2c(cc1O)CC[C@@H]1C2CC[C@@]2(C)C1CC[C@@H]2O (stereo partly specified)
6. CC(=O)Oc1ccc(Br)cc1C(=O)O
7. O=C(Nc1cc(-c2ccccc2)[nH]n1)c1ccc(Cl)cc1

Return:
1: 37.4% (inactive); 2: 128% (inactive); 3: 85.5% (inactive); 4: 97.2% (inactive); 5: 33.7% (inactive); 6: 95.8% (inactive); 7: 76.3% (inactive)

---

Give measured growth for each item. Keep answers brief.
System: HT29 colon
protocolDetails: NCI-60 one-dose screen, 48 h (100 = growth as untreated, 0 = no growth, -100 = all killed)
conditionInfo: 10 µM
Experimental: Growth inhibition of the HT29 human tumor cell line is measured as a screen for anti-cancer activity. Cells are grown in 96 well plates and exposed to the test compound for 48 hours. Compounds are tested at a single concentration, which is 10^-5 M for most compounds. The reported endpoint is percent growth (GI% or GIPRCNT), where numbers from 0 - 100% represent growth inhibition, and numbers from -100% - 0 represent cell death. For example, a value of 40 represents 60% growth inhibition. […]
About 83,000 compounds went through this panel and 20% of them were active in at least one assay; those are over-represented in the sample as a whole.
Numbers only, in %.

Here's what some known entries look like.
>>> reading("COc1ccc(C2OC(N)=C(O)C2=O)cc1OC (stereo unspecified)")
108
>>> reading("CC1(C)N=C(N)N=C(N)N1c1cccc(Br)c1")
28.4
>>> reading("CC(=O)OCC1=CC2OC(=O)C3=COC(OC4OC(CO)C(O)C(O)C4O)C1C32 (stereo unspecified)")
106
>>> reading("CCCCC(CC)COC(C)=O (stereo unspecified)")
111

Each compound below has a reported value. Please supply its growth.
1. NC(=O)NC(=O)c1ccc(Cl)cc1
2. CCc1nc(N)nc(N)c1-c1ccc(Cl)cc1
3. O=[N+]([O-])c1ccc(CO)cc1
4. O/N=C/c1ccc(O)cc1O
5. CC1=CC(C)(C)NC(=S)N1c1ccc(S(=O)(=O)O)c2cccc(S(=O)(=O)O)c12

Return:
1. 94.3
2. 47.5
3. 108
4. 102
5. 133

---

Tested on: HT29 colon
protocolDetails: NCI-60 one-dose screen, 48 h (100 = growth as untreated, 0 = no growth, -100 = all killed)
conditionInfo: 10 µM
Compounds without any hit were thinned out: in the full panel of roughly 83,000, 20% have a hit.
readout: growth (%)
Answers are plain numbers, in %.

Each compound below has a reported value. Please supply its growth.
1. Cc1ccc(C(O)C2CC2)cc1 (stereo not given)
2. O=C(O)CCCc1ccccc1
3. O=C(O)CCC(NC(=O)OCc1ccccc1)C(=O)O (stereo not given)
4. CC(O)COc1ccc(-c2ccccc2)cc1 (stereo not given)
5. CC(=O)Nc1cccc(NC(C)=O)n1
6. COC(=O)c1cccnc1

Return:
[104, 109, 105, 116, 110, 101]

Each compound below has a reported value. Please supply its growth.
1. COc1ccc2c(NCCCCCCCCNc3c4ccccc4nc4cc(OC)ccc34)c3ccccc3nc2c1
2. Nc1ccc(CC(=O)O)c(N)c1
3. CC(C)(O)C#CC#CC(C)(C)O
4. CCC(C#N)(CC)c1ccccc1
5. Cc1ccccc1C1N=C2Oc3ccccc3C=C2C(=O)N1 (stereo not given)
6. C[N+](C)=c1ccc2nc3c(cc(Nc4ccccc4)c4ccccc43)oc-2c1
7. O=C(c1ccc(O)cc1)c1ccc(O)cc1
8. O=C1OC(c2ccc(F)cc2)CC1CN1CCOCC1 (stereo not given)

Return:
-100
107
97.8
110
49.7
52.2
106
90.3

---

Tested on: M14 melanoma
protocolDetails: NCI-60 one-dose screen, 48 h (100 = growth as untreated, 0 = no growth, -100 = all killed)
conditionInfo: 10 µM
This is part of a sample that, as a whole, favours compounds with a hit. Of some 83,000 tested, about 20% had one in any assay.
Give measured growth for each item. Keep answers brief.
Answers are plain numbers, in %.

>>> reading("Cc1ccc(C(=O)N/N=C/c2ccc3c(c2)OCO3)cc1")
93
>>> reading("O=C1c2ccccc2C(=O)N1OCc1ccccc1")
108
>>> reading("O=C1N(C[P+](c2ccccc2)(c2ccccc2)c2ccccc2)CCCN1C[P+](c1ccccc1)(c1ccccc1)c1ccccc1")
98.2
>>> reading("CCCCC(O)c1ccccc1 (stereo unspecified)")
109

Each compound below has a reported value. Please supply its growth.
1. Oc1ccc2c(c1)OCC1(O)Cc3cc(O)c(O)cc3C21 (stereo unspecified)
2. O=C(OCC(O)C1OC(c2ccccc2)OC(COC(=O)c2ccccc2)C1O)c1ccccc1 (stereo unspecified)
3. Cc1ccc(C)n1-c1ccsc1C(=O)NNC(=O)CCl
4. Cc1cc(N2CCC(N3CCCC3)CC2)nc(/N=C(\N)Nc2ccc(Cl)c(Cl)c2)n1
5. CCOc1ccc(Br)cc1/C=N\N=C\c1cc(Br)ccc1OCC

Return:
1. 90.6
2. 110
3. 77.8
4. -85.9
5. 98.6

Each compound below has a reported value. Please supply its growth.
1. CCCCC(CC)COC(C)=O (stereo unspecified)
2. c1ccc(/C(=N\N=C(/c2ccccc2)c2cccs2)c2cccs2)cc1
3. Cc1c(O)cnc2nn(-c3ccccc3)c(=N)n12
4. COc1ccc(/C=C/c2cccc[n+]2C)cc1
5. OCc1cccc2ccccc12
6. CC1C(=O)c2ccccc2CC1C(=O)O (stereo unspecified)

Return:
[102, 101, 114, 103, 110, 113]

---

Test system: SK-OV-3 ovarian
protocolDetails: NCI-60 one-dose screen, 48 h
conditionInfo: 10 µM
The panel holds about 83,000 compounds, 20% with a hit somewhere; the sample as a whole holds those more often. Activity calls are given as the source filed them. The calls were made as follows: active = growth percent below 10; inactive = the rest.
Please reply with one of these outcomes: active, inactive

>>> qualitativelabel("O=C(O)C(Cc1ccccc1)C(=O)O")
"inactive"

Enquiry: Assay result, entry `CCOC(=O)C(=O)C=P(c1ccccc1)(c1ccccc1)c1ccccc1` — outcome?
Return: inactive

Enquiry: Assay result, entry `CCCCNC1(C#N)CCN(Cc2ccccc2)CC1` — outcome?
Return: inactive

Enquiry: Assay result, entry `N#Cc1c(N)sc(=S)c2c1CCCC2` — outcome?
Return: inactive

Enquiry: Assay result, entry `c1cc2cccc3c4cccc5cccc(c(c1)c23)c54` — outcome?
Return: inactive

Enquiry: Assay result, entry O=C1OC(c2ccc(F)cc2)CC1CN1CCOCC1 (stereo not given) — outcome?
Return: inactive

Enquiry: Assay result, entry `CC1(C)S(=O)(=O)OCCOS1(=O)=O` — outcome?
Return: inactive

Enquiry: Assay result, entry `COC(=O)Nc1nc2ccc(C(=O)c3ccc(F)cc3)cc2[nH]1` — outcome?
Return: inactive

Enquiry: Assay result, entry Oc1ccc2c(c1)OCC1(O)Cc3cc(O)c(O)cc3C21 (stereo not given) — outcome?
Return: inactive

Enquiry: Assay result, entry `COc1ccc(C2(O)CCCCC2)cc1` — outcome?
Return: inactive

Enquiry: Assay result, entry CC1(C(=O)O)NC(C(=O)O)Cc2c1[nH]c1ccccc21 (stereo not given) — outcome?
Return: inactive

Enquiry: Assay result, entry `O=C(N/N=C/c1ccccc1O)Nc1nn[nH]n1` — outcome?
Return: inactive

Enquiry: Assay result, entry `CC(=O)OCCO` — outcome?
Return: inactive

Enquiry: Assay result, entry `O=c1[nH]c(O)c(/C=C2/C=Nc3ccccc32)[nH]1` — outcome?
Return: inactive

Enquiry: Assay result, entry `CCOC(=O)/C(=C/c1ccc(OC)cc1)N(CC)CC` — outcome?
Return: inactive

Enquiry: Assay result, entry `O=C(NCc1ccco1)Nc1c(Cl)cc(Cl)cc1Cl` — outcome?
Return: inactive

Enquiry: Assay result, entry `Cc1ccc(N)cc1[N+](=O)[O-]` — outcome?
Return: inactive

Enquiry: Assay result, entry O=C(O)C(c1ccccc1)C(O)c1ccccc1 (stereo not given) — outcome?
Return: inactive

Enquiry: Assay result, entry `O=C(CCl)Nc1ccc2c(c1)C(=O)c1ccc(NC(=O)CCl)cc1C2=O` — outcome?
Return: active
